Record form. Attribute: DGI-2/LDH (OD). Fill in for each entry.
- Target System: DGI-2 (Homo sapiens)
- Construct: encompassed the entire DGI-2 open reading frame (ORF); His-tag of vector pIVEX2.3-MCS (inferred from the vector and from the reverse primer lacking a stop codon); made in house; host or cells: cell-free in vitro translation (Rapid Translation System RTS, Roche; E. coli lysate)
- Sequence (Q15004 1-111): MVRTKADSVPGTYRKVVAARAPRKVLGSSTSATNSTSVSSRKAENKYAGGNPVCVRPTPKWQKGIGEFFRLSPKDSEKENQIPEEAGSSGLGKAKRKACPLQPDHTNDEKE
- Protocol Description: ELISA analysis of phage on DGI-2 polypeptide (specific binding)
- Measurement Setup: ratio of specific binding to non-specific binding
- Protocol: To verify that the selected target binders bound to DGI-2, Elisa assays were performed with recombinant DGI-2. DGI-2 was subcloned and expressed using conventional methods as described below. Protein yields were satisfactory, but most of protein was found in inclusion bodies. […] For analysis of individual target binders, colonies were picked and phage prepared as described above using helper phage, M13KO7. […] Plates were analyzed at 405 nm. […]
Number, no unit, nothing else.

Request: Recorded DGI-2/LDH (OD) of QLDCLVWGLPGLRCDRPLEQ (DGI-2-20R-3-B10; listed as Escherichia coli) , please.
Result: 7.6

Request: Recorded DGI-2/LDH (OD) of GASRVVDVGWRFWGKLWQRS (DGI-2-20F-PP-G5; listed as Escherichia coli) , please.
Result: 2.0

Request: Recorded DGI-2/LDH (OD) of DGKHLTKWSGRGWWSAWVGG (DGI-2-20R-3-B12; listed as Escherichia coli) , please.
Result: 5.5

Request: Recorded DGI-2/LDH (OD) of LGNASSLWFLRSVQESGVR (LGNASSLIPFLRSVQESGVR; DGI-2-20F-3-C5; listed as Escherichia coli) , please.
Result: 1.0

Request: Recorded DGI-2/LDH (OD) of SLFERSARSRYHGSPDCNGS (DGI-2-20F-PP-A3; listed as Escherichia coli) , please.
Result: 2.4

Request: Recorded DGI-2/LDH (OD) of VWRDWVNGTVGLRNREKPGV (DGI2-20R-3-A5; listed as Escherichia coli) [DGI-2-20R-3-A5] , please.
Result: 9.8

Request: Recorded DGI-2/LDH (OD) of CRNFGVIWGAGWVSPGCEDJ (CRNFGVIWGAGWVSPGCEDI; not fully specified; non-natural residue J; DGI-2-20F-3-A1; listed as Escherichia coli) [DGI-2-20E-3-A1] , please.
Result: 3.0

Request: Recorded DGI-2/LDH (OD) of TVKFQGVVQERSRIAGFRYCGDHAVSWGLAGCPALRDKLQ (DGI-2-40F-3-C424; listed as Escherichia coli) , please.
Result: 5.2

Request: Recorded DGI-2/LDH (OD) of PKDGAAFKGSDFIQGGQTVMERAPALWWRDGGGQWEAPST (DGI-2-40F-3-B72; listed as Escherichia coli) , please.
Result: 1.3

Request: Recorded DGI-2/LDH (OD) of RSYPRLCKQKGGVIGRMLPG (DGI-2-20F-PP-B2; listed as Escherichia coli) , please.
Result: 2.9

Request: Recorded DGI-2/LDH (OD) of VLCLE#ALGLSGLGWRVVVGP (VLCLEALGLSGLGWRVVVGP; DGI-2-20F-PP-G4; listed as Escherichia coli) , please.
Result: 2.2

Request: Recorded DGI-2/LDH (OD) of YDQVWNSLLAAVLGGQELVN (DGI-2-20F-3-D112; listed as Escherichia coli) , please.
Result: 1.4

Request: Recorded DGI-2/LDH (OD) of MGVVLECEGGWSIPGQTCYF (DGI-2-20R-3-C7; listed as Escherichia coli) , please.
Result: 5.1

Request: Recorded DGI-2/LDH (OD) of LVIGQRSFLSACSLFDGFCV (DGI-2-20R-4-H814; listed as Escherichia coli) , please.
Result: 9.0

Request: Recorded DGI-2/LDH (OD) of SVTISTSCRTGCPAGYLRRD (DGI-2-20F-PP-D2; listed as Escherichia coli) , please.
Result: 3.1

Request: Recorded DGI-2/LDH (OD) of VTGTRFRGFAVACVRMGTWH (DGI-2-20F-PP-F2; listed as Escherichia coli) , please.
Result: 2.5

Request: Recorded DGI-2/LDH (OD) of VHSQGRMWAIPGLRGGTGAS (DGI-2-20R-3-D7; listed as Escherichia coli) , please.
Result: 5.3

Request: Recorded DGI-2/LDH (OD) of LWRRWSEGQLLGDGELRGDG (DGI-2-20R-3-B52; listed as Escherichia coli) , please.
Result: 8.4

----------
- Target System: DGI-2 (Homo sapiens, UniProt Q15004)
- Construct: encompassed the entire DGI-2 open reading frame (ORF); His-tag of vector pIVEX2.3-MCS (inferred from the vector and from the reverse primer lacking a stop codon); made in house; host or cells: cell-free in vitro translation (Rapid Translation System RTS, Roche; E. coli lysate)
- Sequence (Q15004 1-111): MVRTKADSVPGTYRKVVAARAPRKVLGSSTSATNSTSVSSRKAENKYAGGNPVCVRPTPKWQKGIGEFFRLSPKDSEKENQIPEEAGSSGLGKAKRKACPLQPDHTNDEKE
- Protocol Description: ELISA analysis of phage on DGI-2 polypeptide (specific binding)
- Measurement Setup: ratio of specific binding to non-specific binding
- Experimental: To verify that the selected target binders bound to DGI-2, Elisa assays were performed with recombinant DGI-2. DGI-2 was subcloned and expressed using conventional methods as described below. Protein yields were satisfactory, but most of protein was found in inclusion bodies. […] For analysis of individual target binders, colonies were picked and phage prepared as described above using helper phage, M13KO7. […] Plates were analyzed at 405 nm. […]
Record form. Attribute: DGI-2/LDH (OD). Fill in for each entry.
Number, no unit, nothing else.

Request: Recorded DGI-2/LDH (OD) of GVVRAQQGLRYELQGDRYRLRRTQWLTVTYCSPSWAFAGC (DGI-2-40F-3-B116; listed as Escherichia coli) , please.
Result: 2.0

Request: Recorded DGI-2/LDH (OD) of VSGY#SLWWCGPGWGPRSGR (VSGYSLWWCGPGWGPRSGR; DGI-2-20F-PP-H11; listed as Escherichia coli) , please.
Result: 2.0

Request: Recorded DGI-2/LDH (OD) of LGRTFVWGTCLHLSVSRFGH (DGI-2-20F-PP-C3; listed as Escherichia coli) , please.
Result: 5.1

Request: Recorded DGI-2/LDH (OD) of SLSLYWDAQVGCEVFWGYCV (DGI-2-20R-3-C10; listed as Escherichia coli) , please.
Result: 2.1

Request: Recorded DGI-2/LDH (OD) of DVGAVVRSGHCASRPGE*QVR (DVGAVVRSGHCASRPGEQVR; DGI-2-20F-PP-H9; listed as Escherichia coli) , please.
Result: 1.5

Request: Recorded DGI-2/LDH (OD) of RRTSADTDQLSRWEGAQAFSSLRSALSERLDSLRPGLPPS (DGI-2-40F-3-D9; listed as Escherichia coli) , please.
Result: 1.4

Request: Recorded DGI-2/LDH (OD) of RDHRYVGWGRATFRHDQSVW (DGI-2-20F-PP-H1; listed as Escherichia coli) , please.
Result: 1.4
